Target: S. pyogenes SKKanGAS, kanamycin survival, BacTiterGlo, 6 h
Assay: S. pyogenes SKKanGAS kanamycin growth inhibitors – SKKanGAS strain, luminescence, dose confirmation, streptokinase promoter inhibitor project, dose response (AID 1902);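 also: lower survival reflects blocked streptokinase promoter driving kanamycin resistance gene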
Active and inactive are the calls of the source.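 The calls were made as follows: active = EC50 no more than a set limit of log units above the highest dose; inactive = the rest.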
Possible outcomes: 1 (yes) for active, 0 (no) for inactive

INPUT SMILES: CN(c1ccccc1)c1nc(N2CCCC2)nc(-n2ccnc2)n1
CATEGORY LABEL: 1 (yes)

INPUT SMILES: CCN(CC(=O)NC(C)(C)C)C(=O)COc1c(Cl)cc(Cl)c2ccc(C)nc12
CATEGORY LABEL: 1 (yes)

INPUT SMILES: O=c1c2cc(N3CCOCC3)ccc2[nH]c(=S)n1CCc1ccccc1
CATEGORY LABEL: 1 (yes)

INPUT SMILES: O=C1C=C(Nc2ccccc2O)c2ccccc2C1=O
CATEGORY LABEL: 1 (yes)

INPUT SMILES: Cc1ccccc1OCC(=O)NC(=S)Nc1ccc(Br)c(C)n1
CATEGORY LABEL: 0 (no)

INPUT SMILES: Cc1cc(Nc2ccccc2)nn1C(=O)c1ccc(Br)cc1
CATEGORY LABEL: 1 (yes)

###

Target: S. pyogenes SKKanGAS, kanamycin survival, BacTiterGlo, 6 h
Assay: S. pyogenes SKKanGAS kanamycin growth inhibitors – SKKanGAS strain, luminescence, dose confirmation, streptokinase promoter inhibitor project, dose response (AID 1902);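 also: lower survival reflects blocked streptokinase promoter driving kanamycin resistance gene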
Let's look at some compounds and their measured EC50.

INPUT SMILES: O=c1[nH]c(CN2CC=C(c3ccccc3)CC2)nc2scc(-c3ccccc3)c12
EC50: 3.17 µM
--
INPUT SMILES: O=C(N/N=C/c1cc(Br)cc(Br)c1O)c1ccncc1
EC50: 0.658 µM
--
INPUT SMILES: COc1ccc(C(=O)NC(=S)NNC(=O)c2ccc(C)cc2)cc1
EC50: 0.137 µM
--
INPUT SMILES: O=C(Cc1ccccc1)NNC(=S)NC(=O)c1cccs1
EC50: 3.83 µM
--
INPUT SMILES: Cc1c(Cl)cccc1NC(=S)NCCC(c1ccccc1)c1ccccc1
EC50: 9.25 µM
--
INPUT SMILES: O=C1C(Nc2ccccc2)=C/C(=N/S(=O)(=O)c2cccs2)c2ccccc21
EC50: 1.33 µM

###

Biological target: S. pyogenes SKKanGAS, kanamycin survival, BacTiterGlo, 6 h
Experiment: S. pyogenes SKKanGAS kanamycin growth inhibitors – SKKanGAS strain, luminescence, dose confirmation, streptokinase promoter inhibitor project, dose response (AID 1902);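 also: lower survival reflects blocked streptokinase promoter driving kanamycin resistance gene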
Active and inactive are the calls of the source.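 The calls were made as follows: active = EC50 no more than a set limit of log units above the highest dose; inactive = the rest.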
Possible outcomes: True for active, False for inactive

COMPOUND: c1ccc(-c2onc(-c3ccco3)c2-c2ccc3[nH]ccc3c2)cc1
SUBJECT OF TEST: S. pyogenes SKKanGAS, kanamycin survival, BacTiterGlo, 6 h
CATEGORY LABEL: True

COMPOUND: Cc1nnc(-c2cccc(Br)c2)c2cn(-c3ccc(Br)cc3)nc12
SUBJECT OF TEST: S. pyogenes SKKanGAS, kanamycin survival, BacTiterGlo, 6 h
CATEGORY LABEL: True

COMPOUND: Cc1ccc(S(=O)(=O)NCC(=O)OCC(=O)N2N=C(c3ccc(Cl)cc3)CC2c2ccco2)cc1C (stereo unspecified)
SUBJECT OF TEST: S. pyogenes SKKanGAS, kanamycin survival, BacTiterGlo, 6 h
CATEGORY LABEL: True

COMPOUND: CCCCn1c(-c2ccco2)nc2oc3ccccc3c(=O)c2c1=O
SUBJECT OF TEST: S. pyogenes SKKanGAS, kanamycin survival, BacTiterGlo, 6 h
CATEGORY LABEL: True

COMPOUND: CCOC(=O)c1c2c(n(C)c1COC)C(=O)C(=O)c1ccc(Br)cc1-2
SUBJECT OF TEST: S. pyogenes SKKanGAS, kanamycin survival, BacTiterGlo, 6 h
CATEGORY LABEL: True

COMPOUND: CC(C)(C)NC(=O)C1CC2CCCCC2CN1 (stereo unspecified)
SUBJECT OF TEST: S. pyogenes SKKanGAS, kanamycin survival, BacTiterGlo, 6 h
CATEGORY LABEL: False

COMPOUND: COCCn1c(-c2cc(OC)c(OC)c(OC)c2)nc2oc3cc(OC)ccc3c(=O)c2c1=O
SUBJECT OF TEST: S. pyogenes SKKanGAS, kanamycin survival, BacTiterGlo, 6 h
CATEGORY LABEL: False

COMPOUND: O=C(CSC(=S)N1CCOCC1)c1cc(Br)cc(Br)c1O
SUBJECT OF TEST: S. pyogenes SKKanGAS, kanamycin survival, BacTiterGlo, 6 h
CATEGORY LABEL: False

COMPOUND: Clc1ccc(-c2n[nH]c3c2CCC3)cc1Cl
SUBJECT OF TEST: S. pyogenes SKKanGAS, kanamycin survival, BacTiterGlo, 6 h
CATEGORY LABEL: True

COMPOUND: COc1cnc(-c2ccccn2)nc1Oc1ccccc1Cl
SUBJECT OF TEST: S. pyogenes SKKanGAS, kanamycin survival, BacTiterGlo, 6 h
CATEGORY LABEL: True

COMPOUND: COc1ccc(CCNC(=O)c2cccc(NS(=O)(=O)c3ccccc3F)c2)cc1OC
SUBJECT OF TEST: S. pyogenes SKKanGAS, kanamycin survival, BacTiterGlo, 6 h
CATEGORY LABEL: False
